- System: 406 cancer cell lines, 73 blood tumor cell lines and 333 solid tumor cell lines
- protocol_description: OmniScreen drug efficacy on cancer cell lines, fitted area under curve (AUC) of dose-response
- Format: cell-based
- assay_context: SW579, SW579, Thyroid
quantity_kind: IC50 (µM)
Numbers only, in µM.

**Query** Fill in: IC50 of Cc1nn(-c2nc(-c3ccc(C(F)(F)F)cc3)c(SC(C)C)s2)c(C(=O)O)c1-c1cccc(F)c1 is ___
**Result** 50.5

====

- Tested on: 407 cancer cell lines
- protocol_description: Cell viability of cancer cell lines (IC50), CellTiter-Glo Viability Assay, 96 h
- Assay type: cell-based
- assay_context: OE19, 96 h; read-out: Absolute IC50
quantity_kind: IC50 (µM)
Give bare numbers, in µM.

**Query** Fill in: IC50 of N.N.[Cl][Pt][Cl] [Cisplatin, reference compound] is ___
**Result** 19.4
